experiment: Plasma pharmacokinetics in patients
Type: in vivo, human
protocolConditions: human, plasma, oral, 120 mg/m2, t1/2, day 28, 120 mg/m^2, n=3, mean ± SD
valueKind: half-life (h)

[
  {
    "structureAsSmiles": "Cc1cc(Nc2cc(N3CCN(C)CC3)nc(/C=C/c3ccccc3)n2)n[nH]1",
    "valueKind": "half-life",
    "scaleUnit": "h",
    "testResult": 44.9
  }
]

====

experiment: Plasma pharmacokinetics in patients
Type: in vivo, human
protocolConditions: human, plasma, oral, 350 mg/m2, t1/2, day 1, 350 mg/m^2, n=2, mean ± SD

[
  {
    "compound": "Cc1cc(Nc2cc(N3CCN(C)CC3)nc(/C=C/c3ccccc3)n2)n[nH]1 [ENMD-2076]",
    "half-life (h)": 31.1
  }
]

====

experiment: Plasma pharmacokinetics in patients
Type: in vivo, human
protocolConditions: human, plasma, oral, 60 mg/m2, Tmax, day 28, 60 mg/m^2, n=6, mean ± SD
valueKind: Tmax (h)

[
  {
    "structureAsSmiles": "Cc1cc(Nc2cc(N3CCN(C)CC3)nc(/C=C/c3ccccc3)n2)n[nH]1",
    "valueKind": "Tmax",
    "testResult": 4.7
  }
]

====

experiment: Plasma pharmacokinetics in patients
Assay type: in vivo, human
protocolConditions: human, plasma, oral, 60 mg/m2, AUC(0-inf), day 1, 60 mg/m^2, n=6, mean ± SD
valueKind: AUC(0-inf) (ng·h/mL)

[
  {
    "structureAsSmiles": "Cc1cc(Nc2cc(N3CCN(C)CC3)nc(/C=C/c3ccccc3)n2)n[nH]1",
    "scaleUnit": "ng·h/mL",
    "testResult": 3160
  }
]

====

experiment: Plasma pharmacokinetics in patients
Assay type: in vivo, human
protocolConditions: human, plasma, oral, 200 mg/m2, Cmax, day 1, 200 mg/m^2, n=5, mean ± SD

[
  {
    "molecule": "Cc1cc(Nc2cc(N3CCN(C)CC3)nc(/C=C/c3ccccc3)n2)n[nH]1 [ENMD-2076]",
    "Cmax [ng/mL]": 229
  }
]

====

experiment: Plasma pharmacokinetics in patients
Assay type: in vivo, human
protocolConditions: human, plasma, oral, 120 mg/m2, Tmax, day 1, 120 mg/m^2, n=3, mean ± SD

[
  {
    "structureAsSmiles": "Cc1cc(Nc2cc(N3CCN(C)CC3)nc(/C=C/c3ccccc3)n2)n[nH]1",
    "scaleUnit": "h",
    "Tmax": 6
  }
]

====

experiment: Plasma pharmacokinetics in patients
Format: in vivo, human
protocolConditions: human, plasma, oral, 60 mg/m2, Tmax, day 1, 60 mg/m^2, n=6, mean ± SD
valueKind: Tmax (h)

[
  {
    "structureAsSmiles": "Cc1cc(Nc2cc(N3CCN(C)CC3)nc(/C=C/c3ccccc3)n2)n[nH]1",
    "valueKind": "Tmax",
    "testResult": 7.8
  }
]

====

experiment: Plasma pharmacokinetics in patients
Type: in vivo, human
protocolConditions: human, plasma, oral, 120 mg/m2, t1/2, day 1, 120 mg/m^2, n=3, mean ± SD

[
  {
    "structureAsSmiles": "Cc1cc(Nc2cc(N3CCN(C)CC3)nc(/C=C/c3ccccc3)n2)n[nH]1",
    "half-life (h)": 27.3
  }
]
